Assay remarks: Particle size, PDI and zeta potential of mRNA-loaded lipid nanoparticles (Malvern Zetasizer nano)
Format: physicochemical
Study conditions: Table 1; Luciferase mRNA LNP; cationic lipid:DSPC:cholesterol:DMG-PEG2000 50:10:38.5:1.5 molar
# label = T if PDI >= 0.2 else F

{"Molecule": "CCCCCCCCSCC(C)C(=O)OCCCCCN(CCO)CCCCCCCOC(=O)C(CCCCCCCC)CCCCCCCC (stereo not shown)", "Answer label": "T"}
{"Molecule": "CCCCCCCCSC(CCCCCC)C(=O)OCCCCCCN(CCO)CCCCCCOC(=O)C(CCCCCC)CCCCCCCC (stereo not shown)", "Answer label": "F"}
{"Molecule": "CCCCCCCCC(CCCCCCCC)OC(=O)CCCCCCCN(CCO)CCCCCCC(=O)OCCOCCCCCCC", "Answer label": "T"}
{"Molecule": "CCCCCCCCCCOCC(C)C(=O)OCCCCCN(CCO)CCCCCCCC(=O)OC(CCCCCCCC)CCCCCCCC (stereo not shown)", "Answer label": "F"}
{"Molecule": "CCCCCCCCSCC(C)C(=O)OCCCCCN(CCO)CCCCCCCC(=O)OC(CCCCCCCC)CCCCCCCC (stereo not shown)", "Answer label": "F"}
{"Molecule": "CCCCCCCCCCOCC(CC)C(=O)OCCCCCN(CCO)CCCCCCCC(=O)OC(CCCCCCCC)CCCCCCCC (stereo not shown)", "Answer label": "F"}
{"Molecule": "CCCCCCCCOCC(C)C(=O)OCCCCCN(CCO)CCCCCCCC(=O)OC(CCCCCCCC)CCCCCCCC (stereo not shown)", "Answer label": "F"}

----------
Assay remarks: Encapsulation rate of mRNA-loaded lipid nanoparticles (Ribogreen kit)
Assay type: physicochemical
Study conditions: Table 3 batch; luciferase mRNA LNP prepared as Example 20
Procedure: Luciferase mRNA was diluted in 10-100 mM citrate buffer at pH 4.0; the lipid components (cationic lipids shown in the present disclosure: DSPC:cholesterol:PEG lipids (DMG-PEG2000)) were dissolved in ethanol at a molar ratio of 50:10:38.5:1.5. 3 mL of a mRNA buffer and 1 mL of a lipid solution were loaded into two 5 mL syringes respectively, and the syringes were installed on a microfluidic syringe pump. Chips were connected to the syringes and syringe pump flow rate was set. […]

{"Compound": "CCCCCCCCSCC(C)C(=O)OCCCCCN(CCO)CCCCCCCOC(=O)C(CCCCCCCC)CCCCCCCC (centres unmarked) [Compound 44]", "Encapsulation rate (%)": 97.1}
{"Compound": "CCCCCCCCOCC(C)C(=O)OCCCCCN(CCO)CCCCCCCC(=O)OC(CCCCCCCC)CCCCCCCC (centres unmarked) [Compound 7]", "Encapsulation rate (%)": 96.8}
{"Compound": "CCCCCCCCSCC(C)C(=O)OCCCCCN(CCO)CCCCCCCC(=O)OC(CCCCCCCC)CCCCCCCC (centres unmarked) [Compound 35]", "Encapsulation rate (%)": 96.2}
{"Compound": "CCCCCCCCC(CCCCCCCC)C(=O)OCCCCCCCN(CCO)CCCCCCCOC(=O)C(C)CSCCCCCC (centres unmarked) [Compound 45]", "Encapsulation rate (%)": 96.8}
{"Compound": "CCCCCCCCC(CCCCCCCC)OC(=O)CCCCCCCN(CCO)CCCCCCCOC(=O)C(C)CSCCCCCC (centres unmarked) [Compound 51]", "Encapsulation rate (%)": 98.0}
{"Compound": "CCCCCCCCC(CCCCCCCC)OC(=O)CCCCCCCN(CCO)CCCCCCCOC(=O)C(C)COCCCCCC (centres unmarked) [Compound 23]", "Encapsulation rate (%)": 97.0}
{"Compound": "CCCCCCCCOCC(C)C(=O)OCCCCCN(CCO)CCCCCCCOC(=O)C(CCCCCCCC)CCCCCCCC (centres unmarked) [Compound 16]", "Encapsulation rate (%)": 95.6}
{"Compound": "CCCCCCCCC(CCCCCCCC)C(=O)OCCCCCCCN(CCO)CCCCCCCOC(=O)C(C)COCCCCCC (centres unmarked) [Compound 17]", "Encapsulation rate (%)": 97.6}
